tgt: human EGFRvIII-hFc protein (human) (UniProt P00533)
method_notes: ELISA, EGFRvIII-hFc coated
pEC50: −log10 of the molar value.
quantity_name: pEC50

>>> quantitative_readout("Humanized antibody h75G7C6-7 (antibody, human IgG1, V domains shown) VH: QVQLVQSGAEVKKPGASVKVSCKASGYTFTDYNMDWVRQAPGQGLEWMGDINPNNADTIYNQKFKGRVTMTRDTSTSTVYMELSSLRSEDTAVYYCARGDYDGYYPVYYAMDYWGQGTTVTVSS VL: ENVLTQSPATLSLSPGERATLSCRASSSVSSSYLHWYQQKPGQSPRLLIFSTSNLAAGIPARFSGSGSGTDYTLTISSLEPEDFAVYYCQQYSGYPLTFGGGTKVEIK")
8.96
